test system: Escherichia coli TOP10; test: shrunken log2 fold change of peptide-encoding DNA abundance (4.5 h post-induction vs induction); higher = less antimicrobial activity (less host growth inhibition); details: time post-induction: 4.5 h; library: site-saturation at positions 5, 18, 19, 20
Observable: shrunken log2 fold change
Form rule: numeric answer, no unit written next to it.

> print(dat)
           primary.sequence                 observable  numeric.result
 1  RRIRTRPPRLPRPRPRPYNDPRP  shrunken log2 fold change        -0.00735
 2  RRIRNRPPRLPRPRPRPWTCPRP  shrunken log2 fold change          0.0493
 3  RRIRQRPPRLPRPRPRPNVHPRP  shrunken log2 fold change          -0.258
 4  RRIRVRPPRLPRPRPRPPTRPRP  shrunken log2 fold change           0.508
 5  RRIRMRPPRLPRPRPRPPGAPRP  shrunken log2 fold change            2.06
 6  RRIRWRPPRLPRPRPRPISSPRP  shrunken log2 fold change         -0.0629
 7  RRIRHRPPRLPRPRPRPESMPRP  shrunken log2 fold change          0.0353
 8  RRIRARPPRLPRPRPRPSMYPRP  shrunken log2 fold change          0.0294
 9  RRIRWRPPRLPRPRPRPWTDPRP  shrunken log2 fold change         -0.0932
10  RRIRLRPPRLPRPRPRPHTWPRP  shrunken log2 fold change          -0.202

Turning now to a further sequence:
Entry RRIRLRPPRLPRPRPRPHMEPRP , shrunken log2 fold change reported as -0.101

* * *

Parameter: shrunken log2 fold change. Scope: all listed entries.
tested on: Escherichia coli TOP10; assay: shrunken log2 fold change of peptide-encoding DNA abundance (4.5 h post-induction vs induction); higher = less antimicrobial activity (less host growth inhibition); conditions: time post-induction: 4.5 h; library: site-saturation at positions 5, 18, 19, 20;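 note: peptides expressed intracellularly from a pBAD plasmid library in pooled LB shake-flask culture, induced with 0.3% L-arabinose, DNA abundance read by NGS, three biological replicates, DESeq2 with apeglm shrinkage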
Form rule: numeric answer, no unit written next to it.

# example entries with known answers
> print(dat)
          primary.sequence                 observable  numeric.result
1  RRIRSRPPRLPRPRPRPKRWPRP  shrunken log2 fold change            0.71
2  RRIRVRPPRLPRPRPRPEFVPRP  shrunken log2 fold change          -0.262
3  RRIRMRPPRLPRPRPRPRAAPRP  shrunken log2 fold change             3.2
4  RRIRMRPPRLPRPRPRPMDWPRP  shrunken log2 fold change            0.15
5  RRIRGRPPRLPRPRPRPFQDPRP  shrunken log2 fold change       -0.000102
6  RRIRRRPPRLPRPRPRPFVEPRP  shrunken log2 fold change          -0.142

Entry RRIRKRPPRLPRPRPRPTLCPRP , shrunken log2 fold change reported as 0.403

Entry RRIRDRPPRLPRPRPRPMYYPRP , shrunken log2 fold change reported as -0.535

Entry RRIRARPPRLPRPRPRPYPQPRP , shrunken log2 fold change reported as -0.166

Entry RRIRPRPPRLPRPRPRPRMCPRP , shrunken log2 fold change reported as 0.152

Entry RRIRPRPPRLPRPRPRPATSPRP , shrunken log2 fold change reported as 0.358

Entry RRIRGRPPRLPRPRPRPSETPRP , shrunken log2 fold change reported as 0.223

Entry RRIRDRPPRLPRPRPRPIFRPRP , shrunken log2 fold change reported as -0.202
